assay: In vitro metabolic stability in mouse liver microsomes; type: in vitro ADME; details: 1 μM; 0.5 mg/mL microsomes; up to 60 min
OUTCOME MEASURE: metabolic stability (t1/2, min) vs MLM

Before answering, review these 3 worked examples.
STRUCTURE STRING: COC1=CC(c2ccc[nH]2)=N/C1=C\Nc1cccc(OC(F)(F)F)c1.Cl
RESULT VALUE: 15.8
//
STRUCTURE STRING: Cc1ccc(N/C=C2\N=C(c3ccc[nH]3)C3=C2CCCC3)cc1.Cl
RESULT VALUE: 31.2
//
STRUCTURE STRING: COC1=CC(c2ccc[nH]2)=N/C1=C\Nc1ccc2c(c1)OCCO2.Cl
RESULT VALUE: 15.8

(A) COC1=CC(c2ccc[nH]2)=N/C1=C\Nc1ccc(F)c(OC)c1.Cl
(B) C(/NC1CCCCCC1)=C1/N=C(c2ccc[nH]2)C2=C1CCCC2.Cl
Two entries are listed, A and B . Which one carries the higher metabolic stability (t1/2, min) vs MLM? Give the label under which the chosen entry appears.
A

====

test: In vitro metabolic stability in mouse liver microsomes; type: in vitro ADME; details: 1 μM; 0.5 mg/mL microsomes; up to 60 min
OUTCOME MEASURE: metabolic stability (t1/2, min) vs MLM

Before answering, review these 4 worked examples.
STRUCTURE STRING: COC1=CC(c2ccc[nH]2)=N/C1=C\N[C@H]1CC[C@H](C)CC1.Cl
UNIT ANNOTATION: min
metabolic stability (t1/2, min) vs MLM: 11.4
//
STRUCTURE STRING: COC1=CC(c2ccc[nH]2)=N/C1=C\NCC1CCCCCC1.Cl
UNIT ANNOTATION: min
metabolic stability (t1/2, min) vs MLM: 12.3
//
STRUCTURE STRING: COC1=CC(c2ccc(Cc3ccc(OC)cc3)[nH]2)=N/C1=C\NC1CCCCC1.Cl
UNIT ANNOTATION: min
metabolic stability (t1/2, min) vs MLM: 13.8
//
STRUCTURE STRING: CCC1=C(CC)/C(=C/N[C@H]2CC[C@H](C)CC2)N=C1c1ccc[nH]1.Cl
UNIT ANNOTATION: min
metabolic stability (t1/2, min) vs MLM: 37.5

(I) COC1=CC(c2ccc[nH]2)=N/C1=C\N[C@H]1CC[C@H](C(F)(F)F)CC1.Cl
(II) COC1=CC(c2ccc[nH]2)=N/C1=C\Nc1ccc(Cl)c(Cl)c1.Cl
Which record shows the lower metabolic stability (t1/2, min) vs MLM: the first, I , or the second, II ? Give the label under which the chosen entry appears.
I
(I: 15.4 min, II: 46.7 min)

====

Collected metabolic stability (t1/2, min) vs HLM values appear next to each entry.
assay: In vitro metabolic stability in human liver microsomes; type: in vitro ADME; details: 1 μM; 0.5 mg/mL microsomes; up to 60 min

STRUCTURE STRING: CCc1ccc(C2=N/C(=C\NC3CCCCCC3)C(C)=C2C)[nH]1.Cl
metabolic stability (t1/2, min) vs HLM: > 60.0 min
--
STRUCTURE STRING: COC1=CC(c2ccc[nH]2)=N/C1=C\Nc1ccc2c(c1)OCCO2.Cl
metabolic stability (t1/2, min) vs HLM: > 60.0 min
--
STRUCTURE STRING: Cl.Clc1ccc(OC2=CC(c3ccc[nH]3)=N/C2=C\NC23CC4CC(CC(C4)C2)C3)cc1
metabolic stability (t1/2, min) vs HLM: > 60 min
--
STRUCTURE STRING: CCCCCCN/C=C1\N=C(c2ccc[nH]2)C=C1OC.Cl
metabolic stability (t1/2, min) vs HLM: 17.1 min
--
STRUCTURE STRING: COC1=CC(c2ccc[nH]2)=N/C1=C\N[C@H]1CC[C@H](C)CC1.Cl
metabolic stability (t1/2, min) vs HLM: 17.3 min
--
STRUCTURE STRING: COC1=CC(c2ccc(Cc3ccc(OC)cc3)[nH]2)=N/C1=C\NC1CCCCCCC1.Cl
metabolic stability (t1/2, min) vs HLM: 50.8 min
--
STRUCTURE STRING: COC1=CC(c2ccc(Cc3ccc(OC)cc3)[nH]2)=N/C1=C\NC1CCCCCC1.Cl
metabolic stability (t1/2, min) vs HLM: 25.6 min
--
STRUCTURE STRING: COC1=CC(c2ccc[nH]2)=N/C1=C\Nc1ccc(Cl)c(Cl)c1.Cl
metabolic stability (t1/2, min) vs HLM: 56.2 min
--
STRUCTURE STRING: Cl.FC(F)(F)Oc1ccc(C2=CC(c3ccc[nH]3)=N/C2=C\NC23CC4CC(CC(C4)C2)C3)cc1
metabolic stability (t1/2, min) vs HLM: > 60.0 min
--
STRUCTURE STRING: COC1=CC(c2ccc[nH]2)=N/C1=C\Nc1ccc(Cl)c(OC)c1.Cl
metabolic stability (t1/2, min) vs HLM: > 60.0 min

# metabolic stability (t1/2, min) vs HLM lookup, item COC1=CC(c2ccc[nH]2)=N/C1=C\Nc1ccc(OC(F)(F)F)cc1.Cl
> 60.0 min

====

test: In vitro metabolic stability in mouse liver microsomes; type: in vitro ADME; conditions: 1 μM; 0.5 mg/mL microsomes; up to 60 min
OUTCOME MEASURE: metabolic stability (t1/2, min) vs MLM

(P) CC1=C(C)/C(=C/NC2CCCCCC2)N=C1c1ccc[nH]1.Cl
(Q) C(/NC1CCCCC1)=C1/N=C(c2ccc[nH]2)C2=C1CCCC2.Cl
Two entries are listed, P and Q . Which one carries the higher metabolic stability (t1/2, min) vs MLM? Give the label under which the chosen entry appears.
Q
(Q: 33.0 min, P: 11.2 min)

(A) CCc1c(C)[nH]c(C2=N/C(=C\NC34CC5CC(CC(C5)C3)C4)C(C)=C2C)c1C.Cl
(B) COC1=CC(c2ccc(Cc3ccc(OC)cc3)[nH]2)=N/C1=C\NC1CCCCCCC1.Cl
Two entries are listed, A and B . Which one carries the higher metabolic stability (t1/2, min) vs MLM? Give the label under which the chosen entry appears.
A
(A: 29.0 min, B: 16.5 min)

(A) COC1=CC(c2ccc[nH]2)=N/C1=C\NC1CCCCCC1.Cl
(B) COC1=CC(c2ccc(Cc3ccc(OC)cc3)[nH]2)=N/C1=C\NC1CCCCCC1.Cl
(C) COC1=CC(c2ccc[nH]2)=N/C1=C\Nc1cccc(Cl)c1.Cl
(D) COC1=CC(c2ccc[nH]2)=N/C1=C\Nc1ccc(C)cc1.Cl
Sort low-to-high on metabolic stability (t1/2, min) vs MLM, please. List labels; respect the requested ordering.
A, B, D, C

(P) CCc1ccc(C2=N/C(=C\NC3CCCCCC3)C(OC)=C2)[nH]1.Cl
(Q) COC1=CC(c2ccc[nH]2)=N/C1=C\Nc1ccc(OC(F)(F)F)cc1.Cl
Two entries are listed, P and Q . Which one carries the higher metabolic stability (t1/2, min) vs MLM? Give the label under which the chosen entry appears.
Q

====

Collected metabolic stability (t1/2, min) vs MLM values appear next to each entry.
test: In vitro metabolic stability in mouse liver microsomes; assay type: in vitro ADME; details: 1 μM; 0.5 mg/mL microsomes; up to 60 min

STRUCTURE STRING: Cl.FC(F)(F)Oc1ccc(C2=CC(c3ccc[nH]3)=N/C2=C\NC23CC4CC(CC(C4)C2)C3)cc1
metabolic stability (t1/2, min) vs MLM: > 60.0 min
//
STRUCTURE STRING: COC1=CC(c2ccc(Cc3ccc(OC)cc3)[nH]2)=N/C1=C\NC1CCCC1.Cl
metabolic stability (t1/2, min) vs MLM: 10.4 min
//
STRUCTURE STRING: Cl.Clc1ccc(OC2=CC(c3ccc[nH]3)=N/C2=C\NC23CC4CC(CC(C4)C2)C3)cc1
metabolic stability (t1/2, min) vs MLM: > 60 min

Here is another molecule to look at.
# metabolic stability (t1/2, min) vs MLM lookup, item COc1ccc(Oc2ccc(N/C=C3\N=C(c4ccc[nH]4)C4=C3CCCC4)cc2)cc1.Cl
> 60.0 min

====

Collected metabolic stability (t1/2, min) vs HLM values appear next to each entry.
assay: In vitro metabolic stability in human liver microsomes; format: in vitro ADME; details: 1 μM; 0.5 mg/mL microsomes; up to 60 min

Before answering, review these 3 worked examples.
STRUCTURE STRING: CC1=C(C)/C(=C/NC2CCCCCC2)N=C1c1ccc(CC(C)C)[nH]1.Cl
metabolic stability (t1/2, min) vs HLM: > 60.0 min
--
STRUCTURE STRING: COC1=CC(c2ccc[nH]2)=N/C1=C\Nc1ccc(F)c(OC)c1.Cl
metabolic stability (t1/2, min) vs HLM: > 60.0 min
--
STRUCTURE STRING: COC1=CC(c2ccc[nH]2)=N/C1=C\Nc1cccc(OC(F)(F)F)c1.Cl
metabolic stability (t1/2, min) vs HLM: > 60.0 min

Here is another molecule to look at.
# metabolic stability (t1/2, min) vs HLM lookup, item CCC1=C(CC)/C(=C/N[C@H]2CC[C@H](C)CC2)N=C1c1ccc[nH]1.Cl
23.3 min
